Assay: Phase I dose escalation population pharmacokinetics in patients with hematologic malignancies (plasma UPLC-MS/MS, Monolix PPK model)
Format: in vivo, human
Settings: both sexes, human, plasma, po, 40 mg, 40 mg BID oral, n = 13, values doubled to mimic 80 mg (2 × 40 mg); read-out: AUC0-24 hr [mean +/- SD]
endpoint: AUC(0-t) (ng·h/mL)
The figure you give is taken to be in ng·h/mL; do not add the unit.

Which AUC(0-t) is listed for Cc1sc2c(c1C)C(c1ccc(Cl)cc1)=N[C@@H](CC(=O)Nc1ccc(O)cc1)c1nnc(C)n1-2 ?
13100

###

Test: Phase I dose escalation population pharmacokinetics in patients with hematologic malignancies (plasma UPLC-MS/MS, Monolix PPK model)
Format: in vivo, human
Settings: both sexes, human, plasma, po, 120 mg, 120 mg QD oral, n = 30, derived from EBE; read-out: AUC0-24 hr [mean +/- SD]
endpoint: AUC(0-t) (ng·h/mL)
The figure you give is taken to be in ng·h/mL; do not add the unit.

Which AUC(0-t) is listed for Cc1sc2c(c1C)C(c1ccc(Cl)cc1)=N[C@@H](CC(=O)Nc1ccc(O)cc1)c1nnc(C)n1-2 [Compound of Formula (1)] ?
17200
